Quick reference for melting point among some molecules

// worked examples, melting point included
MOLECULE	melting point
CC(=O)SCCC(=O)N1N=C(c2ccccc2)CC1C(=O)O (stereo not given)	137 to 139 °C
CCc1ncc(CCCOc2c(C)cc(-c3nnn(C)n3)cc2C)n1C	96 to 98 °C

O=C(Cc1noc2ccccc12)NS(=O)(=O)C1CC1 has a reported melting point of 147 to 148 °C

molecule COC(=O)c1nc(-c2ccc(Cl)c(F)c2)c(F)c(N)c1SC , melting point observed: 125 to 126 °C

Briefly, melting point measured for COc1ccc2c(=O)cc(CS(C)=O)oc2c1 (stereo not given) : 157 to 159 °C

All figures here come from a melting point compilation (Tetko et al.; mined from patent text by program, amines drawn as free bases though some values may be those of a salt).
